Test: Inhibition of Methanobacterium thermoautotrophicum ODCase
Set-up: species or system Methanothermobacter thermautotrophicus
For each of the compounds below, state its pKi.
Just the number, please; pKi means minus log10 of the concentration in mol/L.

[ask] Query: pKi; subject: Nc1nc2c(ncn2[C@@H]2O[C@H](COP(=O)(O)O)[C@@H](O)[C@H]2O)c(=O)[nH]1
[reply] 2.38

[ask] Same lookup for O=c1ccn([C@@H]2O[C@H](COP(=O)(O)O)[C@@H](O)[C@H]2O)c(=O)[nH]1 , please.
[reply] 3.48

[ask] Next entry: Nc1ccn([C@@H]2O[C@H](COP(=O)(O)O)[C@@H](O)[C@H]2O)c(=O)n1
[reply] 2.92

[ask] Try the compound Nc1ncnc2c1ncn2[C@@H]1O[C@H](COP(=O)(O)O)[C@@H](O)[C@H]1O
[reply] 2.46

[ask] Item: O=c1[nH]c(=O)c2ncn([C@@H]3O[C@H](COP(=O)(O)O)[C@@H](O)[C@H]3O)c2[nH]1
[reply] 3.89

[ask] Now consider Cc1cn([C@H]2C[C@H](O)[C@@H](COP(=O)(O)O)O2)c(=O)[nH]c1=O and answer again.
[reply] 2.48
